Where these numbers come from: patent US9018224B2

# pEC50 per entry
- measurement-target: human GPR119 (Homo sapiens, UniProt Q8TDV5)
- Sequence (Q8TDV5 1-308 limits assumed): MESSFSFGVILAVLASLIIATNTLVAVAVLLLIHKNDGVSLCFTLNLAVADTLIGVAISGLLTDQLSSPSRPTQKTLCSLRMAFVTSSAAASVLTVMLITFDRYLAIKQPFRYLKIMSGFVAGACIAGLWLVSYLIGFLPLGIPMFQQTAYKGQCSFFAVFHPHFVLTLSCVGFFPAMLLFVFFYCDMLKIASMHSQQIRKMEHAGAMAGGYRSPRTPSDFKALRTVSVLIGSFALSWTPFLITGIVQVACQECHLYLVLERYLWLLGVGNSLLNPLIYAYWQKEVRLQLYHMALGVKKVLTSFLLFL
- test-description: Measurement of GPR119 signaling by cAMP (LANCE cAMP kit or HTRF) in HEK293 cells transfected with human GPR119
- condition-parameters: agonist cAMP response in HEK293 cells stably transfected with human GPR119; patent does not say which of the two cAMP formats (LANCE or HTRF)
pEC50: −log10 of the molar value.

{"columns": ["molecule", "pEC50"],
 "data": [
  ["CN(Cc1n[nH]c(=O)[nH]1)C(=O)Cc1ccc(OCC[C@@H]2C[C@@H]2C2CCN(c3ncc(Cl)cn3)CC2)cc1F [Example 158]", 8.18],
  ["O=C(Cc1ccc(OCC[C@@H]2C[C@@H]2C2CCN(c3ncc(Cl)cn3)CC2)cc1F)N1CCCc2[nH]nc(C3CC3)c21 [Example 196]", 8.27],
  ["CCOCc1cnc(N2CCC([C@H]3C[C@H]3CCOc3ccc(CC(=O)N(C)C)c(F)c3)CC2)nc1 [Example 204]", 8.92],
  ["O=C(Cc1ccc(OCC[C@@H]2C[C@@H]2C2CCN(c3ncc(Cl)cn3)CC2)cc1F)N1CCC[C@@H]1C(F)(F)F [Example 76]", 8.62],
  ["CCOCc1cnc(N2CCC([C@H]3C[C@H]3CCOc3ccc(CC(=O)N4CCC4)c(F)c3)CC2)nc1 [Example 200]", 9.10],
  ["CCOc1cnc(N2CCC([C@H]3C[C@H]3CCOc3cc(F)c(CC(=O)N4CC(OC)C4)c(F)c3)CC2)nc1 [Example 236]", 9.92],
  ["O=C(Cc1ccc(OCC[C@@H]2C[C@@H]2C2CCN(c3ncc(Cl)cn3)CC2)cc1)NC1CC1 [Example 2]", 8.74],
  ["COCc1cnc(N2CCC([C@H]3C[C@H]3CCOc3ccc(CC(=O)N4CCC4)c(F)c3)CC2)nc1 [Example 41]", 9.11],
  ["CC1CC(C)CN(C(=O)Cc2ccc(OCC[C@@H]3C[C@@H]3C3CCN(c4ncc(Cl)cn4)CC3)cc2F)C1 (some centres unmarked) [Example 89]", 8.07],
  ["CCOc1cnc(N2CCC([C@H]3C[C@H]3CCOc3cc(F)c(CC(=O)N4CC(F)C4)c(F)c3)CC2)nc1 [Example 230]", 9.96],
  ["CC1c2ncc(C(F)(F)F)n2CCN1C(=O)Cc1ccc(OCC[C@@H]2C[C@@H]2C2CCN(c3ncc(Cl)cn3)CC2)cc1F (some centres unmarked) [Example 180]", 9.09],
  ["COCc1cnc(N2CCC([C@H]3C[C@H]3CCOc3ccc(CC(=O)N4CCC4)cc3F)CC2)nc1 [Example 251]", 8.26],
  ["O=C(Cc1ccc(OCC[C@@H]2C[C@@H]2C2CCN(c3ncc(Cl)cn3)CC2)cc1)N1CCCC1 [Example 3]", 8.68],
  ["O=C(Cc1ccc(OCC[C@@H]2C[C@@H]2C2CCN(c3ncc(Cl)cn3)CC2)cc1)N1CCOCC1 [Example 5]", 8.44]
]}

* * *

- measurement-target: human GPR119 (Homo sapiens, UniProt Q8TDV5)
- test-description: Measurement of GPR119 signaling by cAMP (LANCE cAMP kit or HTRF) in HEK293 cells transfected with human GPR119
- condition-parameters: agonist cAMP response in HEK293 cells stably transfected with human GPR119; patent does not say which of the two cAMP formats (LANCE or HTRF)
pEC50: −log10 of the molar value.
# pEC50 per entry

{"columns": ["compound", "pEC50"],
 "data": [
  ["Cn1ccc2c1CCN(C(=O)Cc1ccc(OCC[C@@H]3C[C@@H]3C3CCN(c4ncc(Cl)cn4)CC3)cc1F)C2 [Example 145]", 8.20],
  ["COCc1cnc(N2CCC([C@H]3C[C@H]3CCOc3ccc(CC(=O)N4CCOCC4)c(F)c3)CC2)nc1 [Example 46]", 8.74],
  ["COCc1cnc(N2CCC([C@H]3C[C@H]3CCOc3ccc(CC(=O)N4CC(F)C4)c(F)c3)CC2)nc1 [Example 43]", 9.27],
  ["O=C(Cc1ccc(OCC[C@@H]2C[C@@H]2C2CCN(c3ncc(Cl)cn3)CC2)cc1F)N1CCOCC1 [Example 80]", 9.12]
]}

* * *

- measurement-target: human GPR119 (Homo sapiens, UniProt Q8TDV5)
- test-description: Measurement of GPR119 signaling by cAMP (LANCE cAMP kit or HTRF) in HEK293 cells transfected with human GPR119
- condition-parameters: agonist cAMP response in HEK293 cells stably transfected with human GPR119; patent does not say which of the two cAMP formats (LANCE or HTRF)
metric: EC50 (nM)

{"columns": ["molecule", "metric", "observed-measurement"],
 "data": [
  ["CN(C(=O)Cc1ccc(OCC[C@@H]2C[C@@H]2C2CCN(c3ncc(Cl)cn3)CC2)cc1F)C1CCCCC1 [Example 164]", "EC50", 1.6],
  ["COCc1cnc(N2CCC([C@H]3C[C@H]3CCOc3cc(F)c(CC(=O)N4CCOCC4)c(F)c3)CC2)nc1 [Example 223]", "EC50", 0.38],
  ["COCc1cnc(N2CCC([C@H]3C[C@H]3CCOc3ccc(CC(=O)N4CCc5nc(C)oc5C4)c(F)c3)CC2)nc1 [Example 58]", "EC50", 1.2],
  ["CCc1nnc2n1CCN(C(=O)Cc1ccc(OCC[C@@H]3C[C@@H]3C3CCN(c4ncc(Cl)cn4)CC3)cc1F)C2 [Example 151]", "EC50", 4.7],
  ["CC1(NC(=O)Cc2ccc(OCC[C@@H]3C[C@@H]3C3CCN(c4ncc(Cl)cn4)CC3)cc2F)CC1 [Example 93]", "EC50", 3.7],
  ["CN(CCS(C)(=O)=O)C(=O)Cc1ccc(OCC[C@@H]2C[C@@H]2C2CCN(c3ncc(Cl)cn3)CC2)cc1F [Example 169]", "EC50", 3.2],
  ["Cn1nc(C(F)(F)F)c2c1CN(C(=O)Cc1ccc(OCC[C@@H]3C[C@@H]3C3CCN(c4ncc(Cl)cn4)CC3)cc1F)CC2 [Example 189]", "EC50", 6],
  ["CN(C(=O)Cc1ccc(OCC[C@@H]2C[C@@H]2C2CCN(c3ncc(Cl)cn3)CC2)cc1F)C1CCOC1 (stereo partly shown) [Example 154]", "EC50", 0.41],
  ["COCc1cnc(N2CCC([C@H]3C[C@H]3CCOc3ccc(CC(=O)N4CC(OC)C4)cc3)CC2)nc1 [Example 8]", "EC50", 2.9],
  ["CC1(NC(=O)Cc2ccc(OCC[C@@H]3C[C@@H]3C3CCN(c4ncc(Cl)cn4)CC3)cc2F)CCC1 [Example 92]", "EC50", 4],
  ["CCOc1cnc(N2CCC([C@H]3C[C@H]3CCOc3cc(F)c(CC(=O)N(C)C)c(F)c3)CC2)nc1 [Example 234]", "EC50", 0.26],
  ["COCc1cnc(N2CCC([C@H]3C[C@H]3CCOc3ccc(CC(=O)N4CC(O)C4)c(F)c3)CC2)nc1 [Example 42]", "EC50", 3.4],
  ["CCOCc1cnc(N2CCC([C@H]3C[C@H]3CCOc3ccc(CC(=O)N4CC(OC)C4)c(F)c3)CC2)nc1 [Example 203]", "EC50", 1.2]
]}

* * *

# EC50 per entry
- measurement-target: UniProt:Q8TDV5
- test-description: Measurement of GPR119 signaling by cAMP (LANCE cAMP kit or HTRF) in HEK293 cells transfected with human GPR119
- condition-parameters: agonist cAMP response in HEK293 cells stably transfected with human GPR119; patent does not say which of the two cAMP formats (LANCE or HTRF)
metric: EC50 (nM)

{"columns": ["compound", "observed-measurement"],
 "data": [
  ["O=C(Cc1ccc(OCC[C@@H]2C[C@@H]2C2CCN(c3ncc(Cl)cn3)CC2)cc1F)N1CC(O)C1", 0.22],
  ["COc1cnc(N2CCC([C@H]3C[C@H]3CCOc3ccc(CC(=O)N4CCC4)c(F)c3)CC2)nc1", 0.94],
  ["COCc1cnc(N2CCC([C@H]3C[C@H]3CCOc3ccc(CC(=O)N4CC5CC5C4)c(F)c3)CC2)nc1 (some centres unmarked)", 0.98],
  ["O=C(Cc1ccc(OCC[C@@H]2C[C@@H]2C2CCN(c3ncc(Cl)cn3)CC2)cc1F)N1CCc2sccc2C1", 2.2],
  ["CC(C)(O)c1cnc(N2CCC([C@H]3C[C@H]3CCOc3ccc(CC(=O)N4CCC4)c(F)c3)CC2)nc1", 7.5],
  ["CC1(NC(=O)Cc2ccc(OCC[C@@H]3C[C@@H]3C3CCN(c4ncc(Cl)cn4)CC3)cc2F)CCCCC1", 9.3],
  ["O=C(Cc1ccc(OCC[C@@H]2C[C@@H]2C2CCN(c3ncc(Cl)cn3)CC2)cc1F)N1CCc2ncncc2C1", 1.5],
  ["CC(C)CCN(C)C(=O)Cc1ccc(OCC[C@@H]2C[C@@H]2C2CCN(c3ncc(Cl)cn3)CC2)cc1F", 10.3],
  ["CCOCc1cnc(N2CCC([C@H]3C[C@H]3CCOc3ccc(CC(=O)N4CC(F)C4)c(F)c3)CC2)nc1", 0.49],
  ["CCOCc1cnc(N2CCC([C@H]3C[C@H]3CCOc3ccc(CC(=O)N4CC(F)(F)C4)c(F)c3)CC2)nc1", 0.3],
  ["O=C(Cc1ccc(OCC[C@@H]2C[C@@H]2C2CCN(c3ncc(Cl)cn3)CC2)cc1F)N1CCc2oc(C3CC3)nc2C1", 4.7],
  ["O=C(Cc1ccc(OCC[C@@H]2C[C@@H]2C2CCN(c3ncc(Cl)cn3)CC2)cc1F)N1CCc2sc(C3CC3)nc2C1", 6.4],
  ["O=C(Cc1ccc(OCC[C@@H]2C[C@@H]2C2CCN(c3ncc(Cl)cn3)CC2)cc1F)N1CC(F)(F)C1", 1.2],
  ["COCc1cnc(N2CCC([C@H]3CC3CCOc3cc(F)c(CCO)c(F)c3)CC2)nc1 (stereo in doubt)", 7.2]
]}
